biological target: full-length B-Catenin (Uniprot ID P35222) (Homo sapiens); construct: 65 nM full-length B-Catenin (Uniprot ID P35222); test: Alphascreen binding assay (beta-catenin / biotin-TCF4 10-53)
Overview of reported EC50 across a group of molecules:
Numbers only; they are read as nM.

[
  {
    "Molecule": "CC(=O)N1CCC[C@]12CC=CCCCC1(CCCC=CCCCCCC[C@@](C)(C(=O)N[C@@H](Cc3ccccc3)C(=O)N[C@@H](Cc3c[nH]c4ccc(C5CC5)cc34)C(=O)N[C@@H](CCC(N)=O)C(N)=O)NC(=O)[C@H](C(C)C)NC(=O)[C@H](Cc3ccccc3)NC(=O)[C@H](C)NC(=O)[C@H](C)NC(=O)[C@H](CCC(=O)O)NC(=O)[C@H](CC(=O)O)NC1=O)NC(=O)[C@H](C)NC(=O)[C@H](CC(=O)O)NC2=O (stereo partly drawn)",
    "Readout units": "nM",
    "Readout value": 2070
  }
]

Give the value of EC50 reported for the following: CC(=O)N1CCC[C@]12CC=CCCCC1(CCCC=CCCCCCC[C@@](C)(C(=O)N[C@@H](Cc3ccccc3)C(=O)N[C@@H](Cc3c[nH]c4ccccc34)C(=O)N[C@@H](CCC(N)=O)C(N)=O)NC(=O)[C@H](C(C)C)NC(=O)[C@H](C)NC(=O)[C@H](C)NC(=O)[C@H](C)NC(=O)[C@H](CC(=O)O)NC(=O)[C@H](CC(=O)O)NC1=O)NC(=O)[C@H](C)NC(=O)[C@H](CC(=O)O)NC2=O (stereo partly drawn) [I-354]
2130

Give the value of EC50 reported for the following: CC(=O)N1CCC[C@]12CC=CCCCC1(CCCC=CCCCCCC[C@@](C)(C(=O)N[C@@H](Cc3ccccc3)C(=O)N[C@@H](Cc3csc4ccccc34)C(=O)N[C@@H](CCC(N)=O)C(N)=O)NC(=O)[C@H](C(C)C)NC(=O)[C@H](Cc3ccccc3)NC(=O)[C@H](C)NC(=O)[C@H](C)NC(=O)[C@H](CN(CC(=O)O)CC(F)(F)F)NC(=O)[C@H](CC(=O)O)NC1=O)NC(=O)[C@H](C)NC(=O)[C@H](CC(=O)O)NC2=O (stereo partly drawn)
41

* * *

target: full-length beta-Catenin (Uniprot ID P35222) (Homo sapiens); construct: 10 nM full-length beta-Catenin (Uniprot ID P35222); assay: Fluorescence polarization IC50 (beta-catenin / 5FAM-TCF4 10-53 competition); format: binding; details: fluorescence polarization; read-out: beta-Catenin FP IC50
Sequence (P35222 whole entry): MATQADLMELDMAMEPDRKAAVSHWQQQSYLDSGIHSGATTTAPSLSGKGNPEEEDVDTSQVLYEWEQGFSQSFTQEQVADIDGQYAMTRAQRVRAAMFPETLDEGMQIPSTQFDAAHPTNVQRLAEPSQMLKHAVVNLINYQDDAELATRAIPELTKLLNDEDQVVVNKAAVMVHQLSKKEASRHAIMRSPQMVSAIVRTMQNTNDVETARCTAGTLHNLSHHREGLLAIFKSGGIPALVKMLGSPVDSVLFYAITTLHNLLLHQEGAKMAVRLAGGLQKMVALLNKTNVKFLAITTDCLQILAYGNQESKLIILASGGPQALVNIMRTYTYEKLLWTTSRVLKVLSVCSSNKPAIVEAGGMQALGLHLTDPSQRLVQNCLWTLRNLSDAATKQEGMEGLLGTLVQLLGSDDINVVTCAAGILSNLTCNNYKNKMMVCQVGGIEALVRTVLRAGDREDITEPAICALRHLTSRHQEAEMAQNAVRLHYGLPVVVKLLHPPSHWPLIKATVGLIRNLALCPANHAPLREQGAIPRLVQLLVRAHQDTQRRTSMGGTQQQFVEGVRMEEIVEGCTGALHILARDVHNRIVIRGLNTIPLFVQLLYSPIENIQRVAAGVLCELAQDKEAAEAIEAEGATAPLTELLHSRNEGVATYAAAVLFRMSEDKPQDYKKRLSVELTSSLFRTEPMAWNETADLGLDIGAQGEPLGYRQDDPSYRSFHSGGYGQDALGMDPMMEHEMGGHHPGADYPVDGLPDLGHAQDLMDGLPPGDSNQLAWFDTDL
Property name: pIC50
Keep it numeric: pIC50 is minus log10 of the concentration in mol/L.

Consider the following illustrative entries.
[
  {
    "Molecule": "CC[C@H](C)[C@@H]1NC(=O)[C@H](CC(=O)O)NC(=O)[C@]2(CC=CCCCC3(CCCC=CCCCCCC[C@@](C)(C(=O)N[C@@H](Cc4cccc(F)c4)C(=O)N[C@@H](Cc4csc5ccccc45)C(=O)N[C@@H](CCC(N)=O)C(N)=O)NC(=O)[C@H](CCC(N)=O)NC(=O)[C@H](Cc4cccs4)NC(=O)[C@H](C)NC(=O)[C@H](C)NC(=O)[C@H](CCC(=O)O)NC(=O)[C@H](CC(=O)O)NC3=O)NC1=O)CCCN2C(C)=O (stereo partly drawn)",
    "pIC50": 7.04
  },
  {
    "Molecule": "CC(=O)N1CCC[C@]12CC=CCCCC1(CCCC=CCCCOC(=O)N3CC[C@@](C(=O)N[C@@H](Cc4ccsc4)C(=O)N[C@@H](Cc4csc5ccccc45)C(=O)N[C@@H](CCC(N)=O)C(N)=O)(C3)NC(=O)[C@H](CC(N)=O)NC(=O)[C@H](Cc3ccccc3)NC(=O)[C@H](C)NC(=O)[C@H](C)NC(=O)[C@H](CC(=O)O)NC(=O)[C@H](CC(=O)O)NC1=O)NC(=O)[C@H](CC(C)(C)C)NC(=O)[C@H](CC(=O)O)N(C)C2=O (stereo partly drawn)",
    "pIC50": 6.24
  }
]

Query molecule follows.
Give the value of pIC50 reported for the following: CC(=O)N1CCC[C@]12CC=CCCCC1(CCCC=CCCCOC(=O)N3CC[C@@](C(=O)N[C@@H](Cc4ccccc4)C(=O)N[C@@H](Cc4csc5ccccc45)C(=O)N[C@@H](CCC(N)=O)C(N)=O)(C3)NC(=O)[C@H](CC(C)C)NC(=O)[C@H](Cc3ccccc3)NC(=O)[C@H](C)NC(=O)[C@H](CCCCNC(C)C)NC(=O)[C@H]([C@@H](C)O)NC(=O)[C@H](CC(=O)O)NC1=O)NC(=O)[C@H](Cc1ccccc1)NC(=O)[C@H](CC(N)=O)NC2=O (stereo partly drawn)
5.85

* * *

Experiment: Solubility in PBS
Type: physicochemical
Method: After ultracentrifugation of the PBS solution, the supernatant was analyzed by HPLC and compared to an HPLC injection 50 μM peptide DMSO solution. Solubility was determined by: [(Area of PBS peak)/(Area of DMSO peak)]*50 uM.
Property name: Solubility (µM)
Numbers only; they are read as µM.

Consider the following illustrative entries.
[
  {
    "Compound": "CCC[C@@H]1NC(=O)[C@H](CC(=O)O)NC(=O)[C@]2(CC=CCCCC3(CCCC=CCCCCCC[C@@](C)(C(=O)N[C@@H](Cc4ccccc4)C(=O)N[C@@H](Cc4csc5ccccc45)C(=O)N[C@@H](CCC(N)=O)C(N)=O)NC(=O)[C@H](CCC(N)=O)NC(=O)[C@H](Cc4ccccc4)NC(=O)[C@H](C)NC(=O)[C@H](C)NC(=O)[C@H](CCC(=O)O)NC(=O)[C@H](CC(=O)O)NC3=O)NC1=O)CCCN2C(C)=O (some centres unmarked) [I-522]",
    "Readout units": "µM",
    "Solubility": 50
  },
  {
    "Compound": "CC(=O)N1CCC[C@]12CC=CCCCC1(CCCC=CCCCOC(=O)N3CC[C@@](C(=O)N[C@@H](Cc4ccsc4)C(=O)N[C@@H](Cc4cccc5ccccc45)C(=O)N[C@@H](Cc4c[nH]cn4)C(N)=O)(C3)NC(=O)[C@H](CC(N)=O)NC(=O)[C@H](Cc3ccccc3)NC(=O)[C@H](C)NC(=O)[C@H](C)NC(=O)[C@H](CC(=O)O)NC(=O)[C@H](CC(=O)O)NC1=O)NC(=O)[C@H](CC(C)(C)C)NC(=O)[C@H](CC(=O)O)NC2=O (some centres unmarked)",
    "Readout units": "µM",
    "Solubility": 50
  },
  {
    "Compound": "CC(=O)N1CCC[C@]12CC=CCCCC1(CCCC=CCCCCOC(=O)N3CC[C@@](C(=O)N[C@@H](Cc4ccsc4)C(=O)N[C@@H](Cc4csc5ccccc45)C(=O)N[C@@H](Cc4c[nH]cn4)C(N)=O)(C3)NC(=O)[C@H](CC(N)=O)NC(=O)[C@H](Cc3ccccc3)NC(=O)[C@H](C)NC(=O)[C@H](C)NC(=O)[C@H](CC(=O)O)NC(=O)[C@H](CC(=O)O)NC1=O)NC(=O)[C@H](CC(C)(C)C)NC(=O)[C@H](CC(=O)O)NC2=O (some centres unmarked) [I-775]",
    "Readout units": "µM",
    "Solubility": 47
  },
  {
    "Compound": "CC(=O)N1CCC[C@]12CC=CCCCC1(CCCC=CCCCOC(=O)N3CC[C@@](C(=O)N[C@@H](Cc4ccsc4)C(=O)N[C@@H](Cc4csc5ccccc45)C(=O)N[C@@H](Cc4c[nH]cn4)C(N)=O)(C3)NC(=O)[C@H](CC(N)=O)NC(=O)[C@H](Cc3ccccc3)NC(=O)[C@H](C)NC(=O)[C@H](C)NC(=O)[C@H]([C@@H](C)O)NC(=O)[C@H](CC(=O)O)NC1=O)NC(=O)[C@H](CC(C)(C)C)NC(=O)[C@H](CC(=O)O)NC2=O (some centres unmarked)",
    "Readout units": "µM",
    "Solubility": 10
  }
]

Query compound follows.
Give the value of Solubility reported for the following: CC(=O)N1CCC[C@]12CC=CCCCC1(CCCC=CCCCOC(=O)N3CC[C@@](C(=O)N[C@@H](Cc4ccccc4Cl)C(=O)N[C@@H](Cc4csc5ccccc45)C(=O)N[C@@H](CCC(N)=O)C(N)=O)(C3)NC(=O)[C@H](CC(N)=O)NC(=O)[C@H](Cc3ccccc3)NC(=O)[C@H](Cc3ccccc3)NC(=O)[C@H](C)NC(=O)[C@H](CN(CC(=O)O)CC(F)(F)F)NC(=O)[C@H](CC(=O)O)NC1=O)NC(=O)[C@H](CC(C)(C)C)NC(=O)[C@H](CC(=O)O)NC2=O (some centres unmarked)
10

* * *

test: CHI Log D procedure; assay type: physicochemical; details: pH 7.4
Property name: CHI Log D
Respond numerically, and do not add a unit to the figure.

Consider the following illustrative entries.
[
  {
    "Molecule": "CC[C@H](C)[C@@H]1NC(=O)[C@H](CC(=O)O)NC(=O)[C@]2(CC=CCCCC3(CCCC=CCCCCCC[C@@](C)(C(=O)N[C@@H](Cc4ccsc4)C(=O)N[C@@H](Cc4csc5ccccc45)C(=O)N[C@@H](CCC(N)=O)C(N)=O)NC(=O)[C@H](CC(N)=O)NC(=O)[C@H](Cc4ccccc4)NC(=O)[C@H](C)NC(=O)[C@H](C)NC(=O)[C@H](CCC(=O)O)NC(=O)[C@H](CC(=O)O)NC3=O)NC1=O)CCCN2C(C)=O (stereo partly drawn) [I-520]",
    "CHI Log D": 2.313
  },
  {
    "Molecule": "CC(=O)N1CCC[C@]12CC=CCCCC1(CCCC=CCCCCOC(=O)N3CC[C@@](C(=O)N[C@@H](Cc4ccsc4)C(=O)N[C@@H](Cc4csc5ccccc45)C(=O)N[C@@H](CC(N)=O)C(=O)N[C@H](C)C(N)=O)(C3)NC(=O)[C@H](CC(N)=O)NC(=O)[C@H](Cc3ccccc3)NC(=O)[C@H](C)NC(=O)[C@H](C)NC(=O)[C@H](CC(=O)O)NC(=O)[C@H](CC(=O)O)NC1=O)NC(=O)[C@H](CC(C)(C)C)NC(=O)[C@H](CC(=O)O)NC2=O (stereo partly drawn) [I-834]",
    "CHI Log D": 2.08
  }
]

Query molecule follows.
Give the value of CHI Log D reported for the following: CC(=O)N1CCC[C@]12CC=CCCCC1(CCCC=CCCCCCC[C@@](C)(C(=O)N[C@@H](Cc3cccc(F)c3)C(=O)N[C@@H](Cc3csc4ccccc34)C(=O)N[C@@H](CCC(N)=O)C(N)=O)NC(=O)[C@H](C(C)C)NC(=O)[C@H](Cc3ccccc3)NC(=O)[C@H](C)NC(=O)[C@H](C)NC(=O)[C@H](CC(N)=O)NC(=O)[C@H](CC(=O)O)NC1=O)NC(=O)[C@H](C)NC(=O)[C@H](CC(=O)O)NC2=O (stereo partly drawn) [I-382]
2.631

Cited source for all entries: patent US20240116985A1
